Experiment: Half life in human liver microsomes after 30 mins
Type: ADME, Microsome
# half-life listing for each entry below
recorded-endpoint: half-life (min)

INSERT INTO results (smiles_str, value_prefix, result_number) VALUES
  ('O=c1cc(N2CCOCC2)nc(NCc2cccc3ccccc23)[nH]1', '=', 41),
  ('O=c1nc(N2CCOCC2)cc(NCc2cccc3ccccc23)[nH]1', '>', 115);

----------
Test: Lipophilicity, log D of the compound by HPLC analysis at pH 7.4
Assay type: physicochemical
Settings: buffer
recorded-endpoint: logD

INSERT INTO measurements (compound, recorded_endpoint, result) VALUES
  ('O=c1nc(N2CCOCC2)cc(NCc2ccccc2)[nH]1', 'logD', 0.5),
  ('O=c1cc(NCc2ccccc2)nc(N2CCOCC2)[nH]1', 'logD', 1.1),
  ('O=c1cc(N2CCOCC2)nc(NCc2ccccc2)[nH]1', 'logD', 1.2),
  ('O=c1cc(N2CCOCC2)nc(NCc2cccc3ccccc23)[nH]1', 'logD', 2.4),
  ('O=c1nc(N2CCOCC2)cc(NCc2cccc3ccccc23)[nH]1', 'logD', 1.5),
  ('Cc1cc(C(C)Nc2ccccc2)c2nc(N3CCOCC3)cc(=O)n2c1 (configuration not stated)', 'logD', 3.6),
  ('O=c1cc(NCc2ccccc2)[nH]c(N2CCOCC2)c1', 'logD', 1.8);
